# system_under_test: SdiA (Salmonella enterica subsp. enterica serovar Typhimurium)
# Sequence (O66040 entry or part of it): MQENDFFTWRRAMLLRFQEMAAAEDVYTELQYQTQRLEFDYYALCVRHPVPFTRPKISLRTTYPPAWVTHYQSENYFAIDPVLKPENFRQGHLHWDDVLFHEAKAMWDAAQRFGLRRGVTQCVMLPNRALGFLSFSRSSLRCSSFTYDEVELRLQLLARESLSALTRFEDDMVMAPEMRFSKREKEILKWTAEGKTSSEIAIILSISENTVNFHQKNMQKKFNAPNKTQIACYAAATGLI
# assay_details: S. Typhimurium-pJNS25 SdiA reporter, competitive antagonism against 10 nM L-OOHL
# Format: cell-based
# assay_context: 1 μM compound; average ± STD, change in activity from 10 nM 2 (OOHL); read-out: Antagonism 1 μM Inhibition (%)
inhibition at 1 µM overview
Return type: number; implicit unit %.

CCCCCC(=O)CC(=O)N[C@H]1CCOC1=O [compound 2, reference compound] : -2
CCCCCCCCCCCCOc1ccc(C(=O)N[C@H]2CCOC2=O)cc1 : 22
O=C(Cc1cccc(Cl)c1)N[C@H]1CCOC1=O : 9
O=C(Cc1cccc(Br)c1)N[C@H]1CCOC1=O : 21
CCCCCCCCCCOc1ccc(C(=O)N[C@H]2CCOC2=O)cc1 : 8

Query string: Dear colleague, I am looking for the recorded inhibition at 1 µM of the following molecule: CCOC(=O)CNC(=O)Cc1cccc(I)c1
Result string: 8

Query string: Dear colleague, I am looking for the recorded inhibition at 1 µM of the following molecule: O=C(Cc1ccc(-c2ccccc2)cc1)N[C@H]1CCSC1=O
Result string: 23

Query string: Dear colleague, I am looking for the recorded inhibition at 1 µM of the following molecule: O=C(CCCCCCCCCN=C=S)CC(=O)N[C@H]1CCOC1=O [compound 11, reference compound]
Result string: 64

Query string: Dear colleague, I am looking for the recorded inhibition at 1 µM of the following molecule: O=C(CC1CCCC1)N[C@H]1CCOC1=O
Result string: 7

Query string: Dear colleague, I am looking for the recorded inhibition at 1 µM of the following molecule: Cc1ccc(OCC(=O)N[C@H]2CCOC2=O)cc1
Result string: -3

====

# system_under_test: SdiA (Salmonella enterica subsp. enterica serovar Typhimurium)
# assay_details: S. Typhimurium-pJNS25 SdiA reporter, competitive antagonism against 10 nM L-OOHL
# Assay type: cell-based
# assay_context: 100 μM compound; average ± STD, change in activity from 10 nM 2 (OOHL)
Label TRUE when Antagonism 100 μM Inhibition (%) is strictly below 10%; otherwise label FALSE.

COc1ccccc1C1CCN(c2ccc(/C=C/C(=O)N[C@H]3CCOC3=O)cc2[N+](=O)[O-])CC1 : FALSE
CCCCOc1ccc(C(=O)N[C@H]2CCOC2=O)cc1 : FALSE
CCOc1ccc(CC(=O)N[C@H]2CCOC2=O)cc1 : TRUE
CCCCCCCC(=O)N[C@H]1CCOC1=O : FALSE
O=C(Cc1cccc([N+](=O)[O-])c1)NC1CCCC1 : FALSE

Now for a further molecule.
Query string: Record Cc1ccc(C(=O)N[C@H]2CCOC2=O)cc1 : is its Antagonism 100 μM Inhibition (%) strictly below 10%?
Result string: FALSE

====

EC50 overview
# system_under_test: SdiA (Salmonella enterica subsp. enterica serovar Typhimurium)
# assay_details: Competition dose–response of OOHL (2) against antagonists in the S. Typhimurium SdiA reporter
# Format: cell-based
# assay_context: antagonist at 100 μM
Return type: number; implicit unit nM.

O=C(CCCCCCCCCN=C=S)CC(=O)N[C@H]1CCOC1=O [compound 11, reference compound] : 4670

Query string: Dear colleague, I am looking for the recorded EC50 of the following molecule: CCCCCCCCCCCOc1ccc(C(=O)N[C@H]2CCOC2=O)cc1 [R8]
Result string: 10.6

meta.source: paper PMC6204753
